Ref: patent US5567688A

Tested on: EBV
Experiment: Inhibition of EBV production in H1 cells (bioassay, EBV DP activity in superinfected Raji cells)
Assay type: cell-based
Settings: human gammaherpesvirus 4, Raji, 120 h; EBV; H1 cells treated for 5 days, bioassay; read-out: ID90 (the source's name)
Threshold 5 µM. IC90 below it: condition met. IC90 at it or above: condition not met.

Cc1cn([C@@H]2O[C@H](CO)[C@@H](O)[C@@H]2F)c(=O)[nH]c1=O [D-FMAU] :: condition met
O=C(O)P(=O)(O)O [PFA] :: condition not met
CCc1cn([C@@H]2O[C@H](CO)[C@@H](O)[C@@H]2F)c(=O)[nH]c1=O [D-FEAU] :: condition met
Nc1nc2c(ncn2CCC(CO)CO)c(=O)[nH]1 [PCV] :: condition not met
Nc1nc2c(ncn2COCCO)c(=O)[nH]1 [ACV] :: condition not met
